Biological target: Protein kinase C beta type (Homo sapiens, UniProt P05771)
Sequence (P05771 whole entry): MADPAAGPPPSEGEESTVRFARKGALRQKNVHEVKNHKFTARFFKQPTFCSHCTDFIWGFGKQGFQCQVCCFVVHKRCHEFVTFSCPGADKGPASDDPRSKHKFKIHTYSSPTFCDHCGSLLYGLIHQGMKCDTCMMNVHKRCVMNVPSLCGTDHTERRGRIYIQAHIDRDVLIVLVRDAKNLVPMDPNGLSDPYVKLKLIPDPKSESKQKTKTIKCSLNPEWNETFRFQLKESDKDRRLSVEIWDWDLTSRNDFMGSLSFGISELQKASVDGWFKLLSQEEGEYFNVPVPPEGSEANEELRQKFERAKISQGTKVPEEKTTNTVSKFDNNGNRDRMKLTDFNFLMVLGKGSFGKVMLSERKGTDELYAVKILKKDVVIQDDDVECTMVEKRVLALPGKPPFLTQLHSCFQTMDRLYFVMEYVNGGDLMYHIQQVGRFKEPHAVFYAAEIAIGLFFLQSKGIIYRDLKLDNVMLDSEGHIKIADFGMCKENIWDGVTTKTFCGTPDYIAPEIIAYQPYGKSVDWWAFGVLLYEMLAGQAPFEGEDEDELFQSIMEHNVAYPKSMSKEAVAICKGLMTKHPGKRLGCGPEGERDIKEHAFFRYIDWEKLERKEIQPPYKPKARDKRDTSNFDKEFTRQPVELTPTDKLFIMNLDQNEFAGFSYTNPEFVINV
Assay: Inhibition of PKCbeta2 (unknown origin)
Conditions: read-out: pIC50 (converted)
REPORTED ENDPOINT: IC50 (nM)

A: O=C1NC(=O)C(c2cn(CCCN3CCCCC3)c3ccccc23)=C1Nc1ccccc1
B: Cc1ccccc1NC1=C(c2c[nH]c3ccccc23)C(=O)NC1=O
C: N=C(N)SCCCn1cc(C2=C(Nc3ccccc3)C(=O)NC2=O)c2ccccc21
query: Task for the reader: rank each entry by its IC50, from the minimum upward. Respond with the label ranking, as requested.
result: C, A, B
(C: 2.04 nM, A: 17.4 nM, B: 2190 nM)
